Experimental details: chemical genetic growth profiling, strain panel (AID 1159580);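 note: tested at 20 µM; growth read once vehicle control cultures reached saturation at 30 °C; 1 = growth at the plate median or of vehicle wells; lower values mean less growth of the strain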
Condition context: S. cerevisiae deletion strains, growth OD, locus YOR144C, strain elg1
The whole screen tested about 5,500 compounds, of which about 2,000 (36%) were called active. Another 18% or so got no clear call; they are omitted. Cut-off read from the data, not from the text of the source: active = normalized growth mostly below about 0.91 (no sharp cut-off); inconclusive = no clear call, values can overlap the other calls; inactive = mostly above about 0.92. This is one part of the list.
One label from this list, please: label 1 (active), label 0 (inactive)

Example results:
compound=COc1cc(O)c2c(=O)c(-c3ccc(O)cc3)coc2c1 classification="label 1"
compound=CCN(CC)CCNc1ccc(CO)c2sc3ccccc3c(=O)c12 classification="label 0"

Lab log entry: Cc1cc2cc3c(C)cc(=O)oc3c(C)c2o1 — outcome as called in the assay?
label 0

Kindly provide the recorded test outcome for the following compound: CC(=O)OC1CC2C(C)(C)CCCC2(C)C2CCC3(C)C(c4ccoc4)OC(=O)C4OC43C12C (configuration not stated)
label 0

Give the logged outcome of this assay for the following compound: CC(=O)Nc1ccc(O)cc1
label 0

For CCCCCCCCCCCCCCCC[n+]1ccccc1 , what call appears in the results of this test?
label 1

Record request — test call for CC(N)Cc1ccc(O)cc1 (configuration not stated)
label 0
